target: CYP2E1 (Homo sapiens, UniProt P05181); experiment: in vitro; settings: both, microsomes
Sequence (P05181 whole entry): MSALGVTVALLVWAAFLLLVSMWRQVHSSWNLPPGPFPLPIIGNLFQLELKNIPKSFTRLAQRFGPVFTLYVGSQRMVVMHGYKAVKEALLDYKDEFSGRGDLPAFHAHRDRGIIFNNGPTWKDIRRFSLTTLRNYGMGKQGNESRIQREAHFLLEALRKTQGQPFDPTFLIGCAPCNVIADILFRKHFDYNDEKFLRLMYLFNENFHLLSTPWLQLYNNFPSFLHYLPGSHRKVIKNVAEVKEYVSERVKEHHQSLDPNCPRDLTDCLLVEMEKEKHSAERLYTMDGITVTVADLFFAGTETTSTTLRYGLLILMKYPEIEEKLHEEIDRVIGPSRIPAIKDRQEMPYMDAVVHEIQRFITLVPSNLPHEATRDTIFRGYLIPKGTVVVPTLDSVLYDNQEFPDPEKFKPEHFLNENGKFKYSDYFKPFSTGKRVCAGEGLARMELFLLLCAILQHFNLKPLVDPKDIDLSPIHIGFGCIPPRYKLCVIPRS
experimental_endpoint: inhibition at 20 min, 33.3 μM

Value lookup for inhibition at 20 min, 33.3 μM; key = O=C(O)C(Oc1cccc(C(F)(F)F)c1)c1ccc(Cl)cc1 (single isomer, unassigned; (-)) [(−) halofenic acid] 3%

---

test system: C57BL/6J ob/ob mice; assay: Glucose lowering activity of halofenate analogs in ob/ob mice (Example 12); assay type: in vivo; conditions: baseline before dosing, 125 mg/kg group
experimental_endpoint: Predose Glucose (mg/dL)
Please reply with the bare figure in mg/dL and do not write the unit itself.

Item: CC(=O)NCCOC(=O)C(Oc1cccc(C(F)(F)F)c1)c1ccc(Br)cc1 (racemic) [(±)Analog 29] Test system: C57BL/6J ob/ob mice Read-out: Predose Glucose Value: ? 387.1

Item: O=C(NCCOC(=O)C(Oc1cccc(C(F)(F)F)c1)c1ccc(Cl)cc1)c1ccccc1 (racemic) [(±)Analog 36] Test system: C57BL/6J ob/ob mice Read-out: Predose Glucose Value: ? 329.7

Item: NC(=O)COC(=O)C(Oc1cccc(C(F)(F)F)c1)c1ccc(Cl)cc1 (racemic) [(±)Analog 37] Test system: C57BL/6J ob/ob mice Read-out: Predose Glucose Value: ? 387.4

Item: CN(C)C(=O)COC(=O)C(Oc1cccc(C(F)(F)F)c1)c1ccc(Cl)cc1 (racemic) [(±)Analog 38] Test system: C57BL/6J ob/ob mice Read-out: Predose Glucose Value: ? 329.4

Item: CCCCOC(=O)C(Oc1cccc(C(F)(F)F)c1)c1ccc(Cl)cc1 (racemic) [(±)Analog 33] Test system: C57BL/6J ob/ob mice Read-out: Predose Glucose Value: ? 292.0

Item: CC(=O)NCCOC(=O)C(Oc1cccc(C(F)(F)F)c1)c1ccc(F)cc1 (racemic) [(±)Analog 14] Test system: C57BL/6J ob/ob mice Read-out: Predose Glucose Value: ? 361.0

---

biological target: CYP3A4 (Homo sapiens); assay: in vitro; details: both, microsomes
Sequence (P08684 whole entry): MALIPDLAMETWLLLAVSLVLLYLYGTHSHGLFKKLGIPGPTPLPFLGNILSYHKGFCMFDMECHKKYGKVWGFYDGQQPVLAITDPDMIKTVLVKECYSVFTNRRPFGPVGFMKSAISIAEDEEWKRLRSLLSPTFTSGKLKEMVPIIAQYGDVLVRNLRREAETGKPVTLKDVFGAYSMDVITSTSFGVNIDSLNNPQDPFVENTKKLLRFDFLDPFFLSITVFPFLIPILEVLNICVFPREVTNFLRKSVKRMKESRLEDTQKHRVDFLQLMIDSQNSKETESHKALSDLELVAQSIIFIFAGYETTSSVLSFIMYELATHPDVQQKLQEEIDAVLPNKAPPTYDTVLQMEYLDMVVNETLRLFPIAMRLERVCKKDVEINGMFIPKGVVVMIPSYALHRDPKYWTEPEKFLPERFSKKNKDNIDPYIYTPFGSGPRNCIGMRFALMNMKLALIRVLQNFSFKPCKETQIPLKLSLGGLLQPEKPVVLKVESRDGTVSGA
experimental_endpoint: inhibition at 10 min, 33.3 µM (%)
Please reply with the bare figure in % and do not write the unit itself.

Value lookup for inhibition at 10 min, 33.3 µM; key = O=C(O)C(Oc1cccc(C(F)(F)F)c1)c1ccc(Cl)cc1 (single isomer, unassigned; (-)) [(−) halofenic acid] 1.5

---

target: CYP2D6 (Homo sapiens, UniProt P10635); experiment: in vitro; conditions: both, microsomes
Sequence (P10635 whole entry): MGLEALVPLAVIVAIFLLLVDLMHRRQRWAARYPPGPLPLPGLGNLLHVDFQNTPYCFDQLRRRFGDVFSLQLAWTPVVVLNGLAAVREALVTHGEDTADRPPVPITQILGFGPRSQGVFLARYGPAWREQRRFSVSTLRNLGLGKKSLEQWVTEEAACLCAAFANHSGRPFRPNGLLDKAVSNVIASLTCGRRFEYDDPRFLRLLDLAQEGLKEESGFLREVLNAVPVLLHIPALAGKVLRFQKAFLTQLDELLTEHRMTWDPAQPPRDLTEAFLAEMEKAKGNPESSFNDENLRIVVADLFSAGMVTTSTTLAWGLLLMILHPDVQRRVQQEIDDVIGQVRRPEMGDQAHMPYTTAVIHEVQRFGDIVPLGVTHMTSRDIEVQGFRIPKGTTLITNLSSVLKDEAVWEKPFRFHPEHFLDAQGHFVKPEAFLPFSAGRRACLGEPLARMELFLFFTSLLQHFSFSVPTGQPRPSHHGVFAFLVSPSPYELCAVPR
experimental_endpoint: inhibition at 15 min, 0.33 μM (%)
Please reply with the bare figure in % and do not write the unit itself.

Value lookup for inhibition at 15 min, 0.33 μM; key = O=C(O)C(Oc1cccc(C(F)(F)F)c1)c1ccc(Cl)cc1 (single isomer, unassigned; (-)) [(−) halofenic acid] 3

---

target: CYP2C19 (Homo sapiens, UniProt P33261); assay: Cytochrome P450 isoform inhibition in human hepatic microsomes, S-mephenytoin (Example 18); type: in vitro ADME; conditions: both sexes, human, pooled human hepatic microsomes, probe S-mephenytoin 50 μM; test article 0.33 μM
Sequence (P33261 whole entry, canonical isoform): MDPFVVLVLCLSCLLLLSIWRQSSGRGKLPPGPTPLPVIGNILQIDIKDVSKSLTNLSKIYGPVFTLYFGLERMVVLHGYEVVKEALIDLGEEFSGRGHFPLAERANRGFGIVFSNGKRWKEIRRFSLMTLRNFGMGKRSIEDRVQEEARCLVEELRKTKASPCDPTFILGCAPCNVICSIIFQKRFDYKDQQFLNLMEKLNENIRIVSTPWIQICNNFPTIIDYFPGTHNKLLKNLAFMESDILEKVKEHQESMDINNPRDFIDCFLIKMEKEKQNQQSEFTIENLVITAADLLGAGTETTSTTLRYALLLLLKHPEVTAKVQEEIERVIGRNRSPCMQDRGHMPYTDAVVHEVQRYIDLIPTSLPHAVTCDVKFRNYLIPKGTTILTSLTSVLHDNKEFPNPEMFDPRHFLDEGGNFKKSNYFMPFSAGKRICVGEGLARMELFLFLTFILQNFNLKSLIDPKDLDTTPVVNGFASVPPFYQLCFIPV
experimental_endpoint: inhibition at 30 min, 0.33 μM (%)
Please reply with the bare figure in % and do not write the unit itself.

Value lookup for inhibition at 30 min, 0.33 μM; key = O=C(O)C(Oc1cccc(C(F)(F)F)c1)c1ccc(Cl)cc1 (single isomer, unassigned; (-)) [(−) halofenic acid] 4

Origin of values: patent US20040039053A1
